The compounds below have reported IC50 for UniProtKB P23458.
Sequence (P23458 875-1153 limits assumed): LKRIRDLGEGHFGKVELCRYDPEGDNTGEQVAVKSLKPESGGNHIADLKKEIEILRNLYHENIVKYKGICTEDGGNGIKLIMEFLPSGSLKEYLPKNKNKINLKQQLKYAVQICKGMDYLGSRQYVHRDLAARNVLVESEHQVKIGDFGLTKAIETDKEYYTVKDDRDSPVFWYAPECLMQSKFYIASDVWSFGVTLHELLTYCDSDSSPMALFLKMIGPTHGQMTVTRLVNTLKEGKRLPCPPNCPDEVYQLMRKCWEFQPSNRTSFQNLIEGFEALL

Example cases with answers are listed next.
{"columns": ["compound", "valueMeasured"],
 "data": [
  ["C=CC(=O)NCc1ccc(Sc2ccnc(Nc3ccc(N4CCOCC4)cc3)n2)cc1", "> 1 µM"],
  ["Cc1cnc(Nc2ccc(N3CCOCC3)cc2)nc1Sc1ccc(NC(=O)CSCC(=O)O)cc1", "< 1 µM"],
  ["N#CCNCc1cccc(Sc2ccnc(Nc3ccc(N4CCOCC4)cc3)n2)c1", "< 1 µM"],
  ["C=CC(=O)Nc1ccc(Sc2nc(Nc3ccc(OC)c(OC)c3)ncc2C)cc1", "> 1 µM"],
  ["C=CC(=O)Nc1ccc(Sc2nc(Nc3ccc(N4CCOCC4)cc3)ncc2C)c(C)c1", "> 1 µM"]
]}

Look up IC50 for the entries below, preserving their order.
1. CNC(=O)/C=C\C(=O)Nc1ccc(Sc2nc(Nc3ccc(N4CCOCC4)cc3)ncc2C)cc1
2. C=CC(=O)Nc1ccc(Sc2nc(Nc3cccc(NS(C)(=O)=O)c3)ncc2C)cc1
3. C=CC(=O)Nc1ccc(Sc2nc(Nc3cccc(N4CCOCC4)c3)ncc2F)cc1
4. C=CC(=O)Nc1ccc(Sc2nc(Nc3ccc(N4CCC(O)C4)cc3)ncc2C)cc1 (stereo not drawn)
5. C=CC(=O)Nc1ccc(Sc2nc(Nc3ccc(NS(C)(=O)=O)cc3)ncc2C)cc1
6. C=CC(=O)Nc1ccc(Sc2nc(Nc3ccc(C4CCN(C)CC4)cc3)ncc2C)cc1
7. C=CC(=O)Nc1ccc(Sc2nc(Nc3ccc(N4CCOCC4)cc3)ncc2F)cc1

1. > 1 µM
2. > 1 µM
3. > 1 µM
4. > 1 µM
5. > 1 µM
6. > 1 µM
7. > 1 µM
